Biological target: PTK2 (Homo sapiens)
Construct: purchased Invitrogen PV3832
Test: PTK2 enzyme test, Assay 1 (DELFIA, PT60 antibody)
Type: biochemical
Settings: 1 h pre-incubation, 1 h kinase reaction, values without *
readout: IC50 (nM)

1) COc1cc(C(=O)NC2CCN(C)CC2)c(Cl)cc1Nc1ncc(C(F)(F)F)c(O[C@@H]2CCCC[C@H]2N(C)S(C)(=O)=O)n1 ... 0.42
2) COc1cc(C(=O)NC2CCN(C)CC2)c(Cl)cc1Nc1ncc(C(F)(F)F)c(O[C@@H]2CCC[C@H]2NS(=O)(=O)C2CC2)n1 ... 22

[A] COc1cc(C(=O)N[C@H]2CCN(C)C[C@@H]2OC)c(F)cc1Nc1ncc(C(F)(F)F)c(O[C@@H]2Cc3ccccc3[C@H]2N(C)S(C)(=O)=O)n1
[B] CNC(=O)c1ccc(Nc2ncc(C(F)(F)F)c(O[C@@H]3Cc4ccccc4[C@H]3N(C)S(C)(=O)=O)n2)c(OC)c1
[C] COc1cc(C(=O)NCC2CC2)c(F)cc1Nc1ncc(C(F)(F)F)c(O[C@@H]2Cc3ccccc3[C@H]2N(C)S(C)(=O)=O)n1
[D] COc1cc(C(=O)NCCN(C)C)ccc1Nc1ncc(C(F)(F)F)c(O[C@@H]2Cc3ccccc3[C@H]2NS(C)(=O)=O)n1
Query: Put the compounds in ascending order of IC50. Write out the labels following the order that was asked for.
Reply: D, A, B, C
(D: 0.56 nM, A: 3 nM, B: 13 nM, C: 19 nM)

----------
Molecular target: PTK2 (Homo sapiens)
Construct: purchased Invitrogen PV3832
Assay: PTK2 enzyme test, Assay 1 (DELFIA, PT60 antibody)
Format: biochemical
Details: 1 h pre-incubation, 1 h kinase reaction, values without *
Method: This test uses active PTK2 enzyme (Invitrogen Code PV3832) and poly-Glu-Tyr (4:1, Sigma P-0275) as the kinase substrate. The kinase activity is detected through the phosphorylation of the substrate in a DELFIA™ assay. The phosphorylated substrate is detected with the europium-labelled phosphotyrosine antibody PT60 (Perkin Elmer, No.: AD00400). […] The time-delayed europium fluorescence is then measured in a microtitre plate reader (VICTOR^3, Perkin Elmer). […]
readout: IC50 (nM)

Past entries and their recorded results:
1) CCS(=O)(=O)N[C@@H]1CCC[C@H]1Oc1nc(Nc2cc(F)c(C(=O)NC3CCN(C)CC3)cc2OC)ncc1C(F)(F)F ... 6
2) COc1ccc(C(=O)NN2CCN(C)CC2)cc1Nc1ncc(C(F)(F)F)c(O[C@@H]2Cc3ccccc3[C@H]2N(C)S(C)(=O)=O)n1 ... 0.41
3) COc1cc(C(=O)NCC(C)(C)C)c(F)cc1Nc1ncc(C(F)(F)F)c(O[C@@H]2Cc3ccccc3[C@H]2N(C)S(C)(=O)=O)n1 ... 3

[A] COc1cc(C(=O)NC[C@H](O)CO)ccc1Nc1ncc(C(F)(F)F)c(O[C@@H]2Cc3ccccc3[C@H]2N(C)S(C)(=O)=O)n1
[B] COc1cc(C(=O)N[C@H]2CC[C@H](O)CC2)ccc1Nc1ncc(C(F)(F)F)c(O[C@@H]2Cc3ccccc3[C@H]2N(C)S(C)(=O)=O)n1
[C] COc1cc(NC(=O)C2CCCN(C)C2)ccc1Nc1ncc(C(F)(F)F)c(O[C@@H]2Cc3ccccc3[C@H]2N(C)S(C)(=O)=O)n1 (stereo partly shown)
[D] COc1cc(C(=O)NN2CCN(C)CC2)c(F)cc1Nc1ncc(Cl)c(O[C@@H]2CCC[C@H]2N(C)S(C)(=O)=O)n1
[E] COc1cc(C(=O)NC2CCN(C)CC2)ccc1Nc1ncc(C(F)(F)F)c(O[C@@H]2Cc3ccccc3[C@@H]2NC(C)=O)n1
Query: // sort entries: IC50, high to low In plain terms: list the labels in the order you were asked to.
Reply: E, B, A, C, D
(E: 174 nM, B: 8 nM, A: 5 nM, C: 3 nM, D: 0.37 nM)

----------
Target: PTK2 (Homo sapiens)
Construct: purchased Invitrogen PV3832
Assay: PTK2 enzyme test, Assay 1 (DELFIA, PT60 antibody)
Assay type: biochemical
Conditions: 1 h pre-incubation, 1 h kinase reaction, values without *
pIC50: −log10 of the molar value.
readout: pIC50

Sample records with pIC50:
1. COc1cc(C(=O)NCCN(C)C)c(Cl)cc1Nc1ncc(C(F)(F)F)c(O[C@@H]2CCC[C@H]2NS(C)(=O)=O)n1 ... 9.43
2. COc1cc(C(=O)NCCN(C)C)c(Cl)cc1Nc1ncc(C(F)(F)F)c(O[C@@H]2Cc3ccccc3[C@H]2NS(C)(=O)=O)n1 ... 9.35
3. COc1cc(C(=O)NN2CCN(C)CC2)c(Cl)cc1Nc1ncc(Cl)c(O[C@@H]2Cc3ccccc3[C@H]2N(C)S(C)(=O)=O)n1 ... 8.52
4. COc1cc(NC(C)=O)ccc1Nc1ncc(C(F)(F)F)c(O[C@@H]2Cc3ccccc3[C@H]2N(C)S(C)(=O)=O)n1 ... 8.30

[I] COc1cc(C(=O)NCCn2ccnc2C)ccc1Nc1ncc(C(F)(F)F)c(O[C@@H]2Cc3ccccc3[C@H]2N(C)S(C)(=O)=O)n1
[II] COc1cc(C(=O)NC2CCN(C)CC2)c(F)cc1Nc1ncc(C(F)(F)F)c(O[C@@H]2CCC[C@H]2NS(=O)(=O)C2CC2)n1
Query: Given the two records I and II , choose the one whose pIC50 value is lower. Your choice should be expressed through its label.
Reply: II

----------
Target: PTK2 (Homo sapiens)
Construct: purchased Invitrogen PV3832
Assay: PTK2 enzyme test, Assay 1 (DELFIA, PT60 antibody)
Type: biochemical
Conditions: 1 h pre-incubation, 1 h kinase reaction, values without *
pIC50: −log10 of the molar value.
readout: pIC50

1. COc1cc(C(=O)N[C@H]2CCN(C)C[C@@H]2OC)ccc1Nc1ncc(C(F)(F)F)c(O[C@@H]2Cc3ccccc3[C@H]2N(C)S(C)(=O)=O)n1 ... 8.52
2. COc1cc(C(=O)NCCN(C)C)c(F)cc1Nc1ncc(C(F)(F)F)c(O[C@@H]2CCCC[C@H]2NS(C)(=O)=O)n1 ... 9.00
3. COc1cc(C(=O)NCCn2ccnc2C)c(F)cc1Nc1ncc(C(F)(F)F)c(O[C@@H]2Cc3ccccc3[C@H]2N(C)S(C)(=O)=O)n1 ... 8.30
4. COc1cc(C(=O)NCCN(C)C)c(F)cc1Nc1ncc(C(F)(F)F)c(O[C@@H]2CCCC[C@H]2N(C)S(C)(=O)=O)n1 ... 9.46

[I] COc1cc(C(=O)NC2CCN(C)CC2)ccc1Nc1ncc(C(F)(F)F)c(O[C@@H]2CCCC[C@H]2N(C)S(C)(=O)=O)n1
[II] COc1cc(C(=O)N(C)C)c(Cl)cc1Nc1ncc(Cl)c(O[C@@H]2Cc3ccccc3[C@H]2N(C)S(C)(=O)=O)n1
Query: Form field 'greater pIC50' accepts I or II ; which applies? Refer to your chosen item by its label in the answer.
Reply: I

----------
Target: PTK2 (Homo sapiens)
Construct: purchased Invitrogen PV3832
Experiment: PTK2 enzyme test, Assay 1 (DELFIA, PT60 antibody)
Type: biochemical
Conditions: 1 h pre-incubation, 1 h kinase reaction, values without *
readout: IC50 (nM)

1. COc1cc(C(=O)NCCN(C)C)c(Cl)cc1Nc1ncc(Cl)c(O[C@@H]2Cc3ccccc3[C@H]2N(C)S(C)(=O)=O)n1 [Example 40] ... 3

[a] COc1cc(C(=O)NCCN2CCN(C)CC2)c(Cl)cc1Nc1ncc(Cl)c(O[C@@H]2Cc3ccccc3[C@H]2N(C)S(C)(=O)=O)n1 [Example 34]
[b] COc1cc(C(=O)NC2CCN(C)CC2)c(Cl)cc1Nc1ncc(C(F)(F)F)c(O[C@@H]2CCC[C@H]2NS(=O)(=O)CCl)n1 [Example 47]
Query: Between a and b , whose measured IC50 reads higher? Kindly give the label for the entry you pick.
Reply: b
(b: 3 nM, a: 2 nM)

----------
Target: PTK2 (Homo sapiens, UniProt Q05397)
Construct: purchased Invitrogen PV3832
Sequence (Q05397 whole entry): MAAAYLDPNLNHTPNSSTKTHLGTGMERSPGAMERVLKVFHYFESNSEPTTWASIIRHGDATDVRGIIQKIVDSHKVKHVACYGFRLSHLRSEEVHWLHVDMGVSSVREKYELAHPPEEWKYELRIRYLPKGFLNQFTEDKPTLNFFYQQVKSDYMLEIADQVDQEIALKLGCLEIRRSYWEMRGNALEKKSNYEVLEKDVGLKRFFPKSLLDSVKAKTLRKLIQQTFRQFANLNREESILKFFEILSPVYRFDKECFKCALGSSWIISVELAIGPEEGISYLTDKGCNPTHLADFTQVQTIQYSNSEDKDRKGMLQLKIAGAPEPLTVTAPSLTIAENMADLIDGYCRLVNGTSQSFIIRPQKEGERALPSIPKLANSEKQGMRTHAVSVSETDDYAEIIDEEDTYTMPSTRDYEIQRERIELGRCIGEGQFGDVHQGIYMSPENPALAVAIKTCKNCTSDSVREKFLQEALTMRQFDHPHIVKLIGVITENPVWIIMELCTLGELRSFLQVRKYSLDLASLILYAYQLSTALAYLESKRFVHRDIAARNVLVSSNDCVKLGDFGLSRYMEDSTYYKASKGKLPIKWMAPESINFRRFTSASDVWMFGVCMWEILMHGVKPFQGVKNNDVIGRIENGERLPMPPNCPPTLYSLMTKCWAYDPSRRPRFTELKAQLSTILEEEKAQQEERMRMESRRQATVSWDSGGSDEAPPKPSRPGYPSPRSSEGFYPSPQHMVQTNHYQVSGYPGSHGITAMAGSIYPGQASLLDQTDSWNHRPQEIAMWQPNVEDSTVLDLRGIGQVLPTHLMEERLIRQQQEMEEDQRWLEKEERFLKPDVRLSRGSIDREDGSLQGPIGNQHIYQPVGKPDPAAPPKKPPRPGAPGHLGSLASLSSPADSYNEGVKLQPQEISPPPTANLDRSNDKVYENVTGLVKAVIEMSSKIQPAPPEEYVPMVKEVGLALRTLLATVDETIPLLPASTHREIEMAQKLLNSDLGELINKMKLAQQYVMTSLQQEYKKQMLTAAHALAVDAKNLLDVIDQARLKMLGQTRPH
Assay: PTK2 enzyme test, Assay 1 (DELFIA, PT60 antibody)
Type: biochemical
Settings: 1 h pre-incubation, 1 h kinase reaction, values without *
pIC50: −log10 of the molar value.
readout: pIC50

// below: answered compounds
1. CS(=O)(=O)N[C@@H]1CCC[C@H]1Oc1nc(Nc2ccc3ncsc3c2)ncc1C(F)(F)F [Example 97] ... 8.70
2. COc1cc(C(=O)NCCN2CCN(C)CC2)ccc1Nc1ncc(C(F)(F)F)c(O[C@@H]2Cc3ccccc3[C@H]2N(C)S(C)(=O)=O)n1 [Example 16] ... 8.40
3. COc1ccc(C(=O)NCCN(C)C)cc1Nc1ncc(C(F)(F)F)c(O[C@@H]2Cc3ccccc3[C@H]2N(C)S(C)(=O)=O)n1 [Example 81] ... 9.51

[I] COc1cc(C(=O)NC2CCN(C)CC2)c(Cl)cc1Nc1ncc(C(F)(F)F)c(O[C@@H]2Cc3ccccc3[C@H]2NS(C)(=O)=O)n1 [Example 87]
[II] COc1cc(C(=O)NCCCN(C)C)c(F)cc1Nc1ncc(C(F)(F)F)c(O[C@@H]2Cc3ccccc3[C@H]2N(C)S(C)(=O)=O)n1 [Example 8]
[III] COc1cc(C(=O)NC2CCN(C)CC2)ccc1Nc1ncc(C(F)(F)F)c(O[C@@H]2Cc3ccccc3[C@H]2NC(C)=O)n1 [Example 68]
Query: Number of compounds to sort: 3. Sort criterion: pIC50, ascending. Give the order by naming the labels one after another as requested.
Reply: II, III, I
